Field: Kd. Provide a value for each of the binders that follow.
Biological target: T1, Human ALPP (leucine zipper) (human)
T1 construct: Whole entry: ALPP fused with a cysteine stabilised leucine zipper and His tag; also called hALPP
T1 chain: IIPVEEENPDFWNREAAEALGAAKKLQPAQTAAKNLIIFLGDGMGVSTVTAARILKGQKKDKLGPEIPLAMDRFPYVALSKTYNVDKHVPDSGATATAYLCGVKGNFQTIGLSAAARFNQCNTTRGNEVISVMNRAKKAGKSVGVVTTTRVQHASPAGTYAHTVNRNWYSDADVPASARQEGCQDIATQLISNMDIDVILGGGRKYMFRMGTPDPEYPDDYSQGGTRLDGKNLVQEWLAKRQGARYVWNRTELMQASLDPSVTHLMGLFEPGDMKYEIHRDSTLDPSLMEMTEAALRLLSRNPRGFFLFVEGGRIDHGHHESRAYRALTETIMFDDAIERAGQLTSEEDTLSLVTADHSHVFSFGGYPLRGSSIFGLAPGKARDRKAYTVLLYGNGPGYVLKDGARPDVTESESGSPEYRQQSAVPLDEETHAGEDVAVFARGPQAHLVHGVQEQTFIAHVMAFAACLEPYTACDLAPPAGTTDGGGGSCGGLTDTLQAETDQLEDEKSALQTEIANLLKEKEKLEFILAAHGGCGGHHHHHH
Test: BLI, antigen immobilised

For the binder shown here, F08 His (VHH, not shown: small tags and cut ends, also called #269) VHH: QVQLVESGGGSVQAGGSLRLSCAASGPSLSNYAMGWFRQAPGKEREFVAGISWGGGRTSYTDSVKGRFTISRDNAKNTVYLQMNNLKPEDTGVYYCAGRYGRGRNVEYEYDYWGQGTQVTVSS , give the reported Kd.
< 0.01 nM

Suppose we examine the binder D10 His (VHH, not shown: small tags and cut ends) VHH: QVQLVESGGGLVQPGGSLRLSCAASGSIFSVNTMGWYRQAPGKQRDLVAVATSGGTIHYADSVKGRFTISRDNAKNTVYLQMNSLKPEDTAVYYCNLVVPYGMIAGDHDYWGQGTKVTVSS ; what Kd value has been reported?
0.2 nM

Need Kd of H09 (VHH, not shown: small tags and cut ends) VHH: QVQLVESGGGSVQTGGSLRLSCAASGPSLSNYAMGWFRQAPGKEREFVAGISWGGGRTNYLDSVKGRFTISRDNAKNTMYLQMNSLKPEDTAVYYCAGRYGRGRDVEYEYDYWGQGTQVTVSS , thanks.
< 0.01 nM

Query (binder): F05 His (VHH, not shown: small tags and cut ends) VHH: QVQLVESGGGLVQAGGSLRLSCAASGRAFGDYNIGWFRQAPGKEREFVARRTWDGSSTRYDDSVKGRFTVSIDNAKNTAYLQMNSLKTEDTAVYYCAAGRYSRVRGWEYDYWGQGTQVTVSS ; field requested: Kd
< 0.01 nM

What measured Kd goes with A06 His (VHH, not shown: small tags and cut ends, also called #250) VHH: QVHLVESGGGLVQAGGSLRLSCAASGRTFLSMGWFRQAPGKEREFVAAISWTGGSTGYADSVKGRFTISRESDKETMYLQMNSLKPEDTAVYYCAARGDVYYGGDDATRYKYWGQGTQVTVSS ?
1.32 nM

Dear colleague, I am looking for the recorded Kd of the following binder: B09 (VHH, not shown: small tags and cut ends) VHH: QVQLVESGGGSVQAGGSLRLSCAASGPSLSHYAMGWFRQAPGKEREFVAGISWGGGRTSYTDSVKGRFTISRDNAKNTVYLQMNNLKPEDTGVYYCAGRYGRGRNVEYEYDYWGQGTQVTVSS
< 0.01 nM

Quick check: Kd of D04 His (VHH, not shown: small tags and cut ends) VHH: QVQLVESGGGLVQPGGSLRLSCAASESTFSINVMGWYRQAPGKQRELVATITSGDITNYADSVKGRFTISRDNAENTVYLRTNSLKPEDTAVYYCNARGEYHSGNEYDYWGQGTQVTVSS ?
< 0.01 nM

Query (binder): F09 (VHH, not shown: small tags and cut ends) VHH: QVQLVESGGGSVQAGGSLRLSCAASGPSLSNYAMGWFRQAPGKEREFVAGISWGGGRTSCTDSVKGRFTISRDNAKNTVYLQMNNLKPEDTGVYYCAGRYGRGRNVEYEYDYWGQGTQVTVSS ; field requested: Kd
< 0.01 nM
